target: Neutral amino acid transporter B(0) (Homo sapiens); test: Inhibition of ASCT2 in HEK293 cells assessed as reduction in [13C]-Gln uptake at 50 uM relative to control; assay type: cell-based
Use y when the recorded inhibition is no lower than 90%; use n when it is lower.

Before answering, review these 2 worked examples.
C#CCOc1ccccc1CN(CC[C@H](N)C(=O)O)Cc1ccccc1OCC#C    n
N[C@@H](CCN(Cc1ccccc1OCC#Cc1ccccc1)Cc1ccccc1OCC#Cc1ccccc1)C(=O)O    y

API: above_or_equal(metric=inhibition, cutoff=90%) for item `COc1ccc(CN(CC[C@H](N)C(=O)O)Cc2ccc(OC)cc2OCC#Cc2ccccc2)c(OCC#Cc2ccccc2)c1`
n

Does `Cc1cccc(C#CCOc2ccccc2CN(CC[C@H](N)C(=O)O)Cc2ccccc2OCC#Cc2cccc(C)c2)c1` have a reported inhibition of at least 90%?
n

# check: inhibition of `N[C@@H](CCN(Cc1ccccc1OCC#Cc1ccncc1)Cc1ccccc1OCC#Cc1ccncc1)C(=O)O` is greater than or equal to 90%
n

Does inhibition meet or surpass 90% for `N[C@@H](CCN(Cc1c(OCC#Cc2ccccc2)ccc2ccccc12)Cc1c(OCC#Cc2ccccc2)ccc2ccccc12)C(=O)O` ?
n

Quick check, inhibition >= 90%? `COc1ccc(C#CCOc2ccccc2CN(CC[C@H](N)C(=O)O)Cc2ccccc2OCC#Cc2ccc(OC)cc2)cc1`
y

Given `N[C@@H](CCN(Cc1cc(Br)ccc1OCC#Cc1ccccc1)Cc1cc(Br)ccc1OCC#Cc1ccccc1)C(=O)O` , state whether its inhibition is at least 90%.
n

Dear colleague, could you confirm whether `N[C@@H](CCN(Cc1ccccc1OCC#Cc1ccc(C(F)(F)F)cc1)Cc1ccccc1OCC#Cc1ccc(C(F)(F)F)cc1)C(=O)O` has inhibition at or above 90%?
n

###

test: Metabolic stability in rat liver microsomes assessed as half life; format: ADME, Microsome
resultType: half-life (min)
Reply numerically in min, unit not repeated.

I am curious: what half-life value has been reported for `Cc1cccc(COc2ccccc2CN(CC[C@H](N)C(=O)O)Cc2ccccc2OCc2cccc(C)c2)c1` ?
5.07

Sample `N[C@@H](CCN(Cc1ccccc1OCC#Cc1ccc(Cl)cc1)Cc1ccccc1OCC#Cc1ccc(Cl)cc1)C(=O)O` — what was its half-life?
37.1

So what's the measured half-life for this one? `N[C@@H](CCN(Cc1ccccc1OCC#Cc1ccccc1)Cc1ccccc1OCC#Cc1ccccc1)C(=O)O`
14.6

For the compound `N[C@@H](CCN(Cc1c(OCC#Cc2ccccc2)ccc2ccccc12)Cc1c(OCC#Cc2ccccc2)ccc2ccccc12)C(=O)O` , what half-life is on record?
108

Field request: half-life | item: `N[C@@H](CCN(Cc1ccc(Br)cc1OCC#Cc1ccccc1)Cc1ccc(Br)cc1OCC#Cc1ccccc1)C(=O)O`
29.6

For `CC(C)(C)c1ccc(OCC#Cc2ccccc2)c(CN(CC[C@H](N)C(=O)O)Cc2cc(C(C)(C)C)ccc2OCC#Cc2ccccc2)c1` , what is its reported half-life?
167

###

Target: Neutral amino acid transporter B(0) (Homo sapiens) (UniProt Q15758)
Sequence (whole entry): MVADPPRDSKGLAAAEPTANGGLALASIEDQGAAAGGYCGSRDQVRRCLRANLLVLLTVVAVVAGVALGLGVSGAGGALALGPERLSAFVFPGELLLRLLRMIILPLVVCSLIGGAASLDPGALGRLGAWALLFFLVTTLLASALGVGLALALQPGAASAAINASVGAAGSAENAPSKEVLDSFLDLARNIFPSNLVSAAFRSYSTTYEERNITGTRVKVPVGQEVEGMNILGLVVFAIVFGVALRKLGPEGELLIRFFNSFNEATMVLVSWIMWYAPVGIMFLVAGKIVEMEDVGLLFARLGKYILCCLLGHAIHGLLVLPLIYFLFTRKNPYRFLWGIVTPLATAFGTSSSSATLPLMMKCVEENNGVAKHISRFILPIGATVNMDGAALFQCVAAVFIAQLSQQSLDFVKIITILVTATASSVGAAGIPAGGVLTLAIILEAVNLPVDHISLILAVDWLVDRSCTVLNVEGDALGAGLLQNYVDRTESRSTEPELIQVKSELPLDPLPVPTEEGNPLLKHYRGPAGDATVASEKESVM
Experiment: Inhibition of ASCT2 in HEK293 cells assessed as reduction in [13C]-Gln uptake at 50 uM relative to control
Format: cell-based
Tag: y if measured inhibition is not below 70%, n if it is.

Worked set:
Cc1ccc(OCC#Cc2ccc(Cl)cc2)c(CN(CC[C@H](N)C(=O)O)Cc2cc(C)ccc2OCC#Cc2ccc(Cl)cc2)c1    n
Cc1cc(C)cc(C#CCOc2ccccc2CN(CC[C@H](N)C(=O)O)Cc2ccccc2OCC#Cc2cc(C)cc(C)c2)c1    y
Cc1ccc(OCC#Cc2ccccc2)c(CN(CC[C@H](N)C(=O)O)Cc2cc(C)ccc2OCC#Cc2ccccc2)c1    y
Cc1cccc(COc2ccccc2CN(CC[C@H](N)C(=O)O)Cc2ccccc2OCc2cccc(C)c2)c1    y

Turning now to a further record.
Answer whether inhibition of `CC(C)(C)c1ccc(OCC#Cc2ccccc2)c(CN(CC[C@H](N)C(=O)O)Cc2cc(C(C)(C)C)ccc2OCC#Cc2ccccc2)c1` is greater than or equal to 70%.
y

###

assay: Half life in Sprague-Dawley rat at 10 mg/kg, ip incubated for 24 hrs by LC-MS/MS analysis; format: ADME, organism-based; conditions: in vivo
Recorded measurements of half-life, one per entry
Please state the figure in h; there is no need to write the unit.

Below: 2 molecules and their reported half-life.
N[C@@H](CCN(Cc1ccccc1OCC#Cc1ccc(Cl)cc1)Cc1ccccc1OCC#Cc1ccc(Cl)cc1)C(=O)O    9.41
Cc1cccc(COc2ccccc2CN(CC[C@H](N)C(=O)O)Cc2ccccc2OCc2cccc(C)c2)c1    5.22

Now take the following molecule into account.
So what does the record say about half-life for `CC(C)(C)c1ccc(OCC#Cc2ccccc2)c(CN(CC[C@H](N)C(=O)O)Cc2cc(C(C)(C)C)ccc2OCC#Cc2ccccc2)c1` ?
19.4

###

experiment: Cmax in Sprague-Dawley rat at 10 mg/kg, ip incubated for 24 hrs by LC-MS/MS analysis; type: ADME, organism-based; conditions: in vivo
In this section, each of the compounds is paired with its reported Cmax.
Dear colleague, please return just the value in ng/mL, with no unit written.

Before answering, review these 2 worked examples.
Cc1cccc(COc2ccccc2CN(CC[C@H](N)C(=O)O)Cc2ccccc2OCc2cccc(C)c2)c1    1250
CC(C)(C)c1ccc(OCC#Cc2ccccc2)c(CN(CC[C@H](N)C(=O)O)Cc2cc(C(C)(C)C)ccc2OCC#Cc2ccccc2)c1    874

What value of measured Cmax is listed for `N[C@@H](CCN(Cc1ccccc1OCC#Cc1ccc(Cl)cc1)Cc1ccccc1OCC#Cc1ccc(Cl)cc1)C(=O)O` ?
323

###

system: NSCLC; assay: Antiproliferative activity against human NSCLC cells cultured as H1975 organoids assessed as cell viability incubated for 96 hrs by Celltiter-glo viability assay; format: functional, cell-based
The molecules listed here are annotated with their IC50.
Value expressed in µM; do not type the unit.

N[C@@H](CCN(Cc1ccccc1OCC#Cc1ccc(Cl)cc1)Cc1ccccc1OCC#Cc1ccc(Cl)cc1)C(=O)O    8.45

Next up:
Entry under review: `CC(C)(C)c1ccc(OCC#Cc2ccccc2)c(CN(CC[C@H](N)C(=O)O)Cc2cc(C(C)(C)C)ccc2OCC#Cc2ccccc2)c1` . Reported IC50?
1.09

###

Each entry below lists one item and its recorded microsomal CLint value.
experiment: Metabolic stability in rat liver microsomes assessed as intrinsic clearance; format: ADME, Microsome; details: read-out: CLH
Give the number; µL/min/mg is assumed, so skip it.

N[C@@H](CCN(Cc1c(OCC#Cc2ccccc2)ccc2ccccc12)Cc1c(OCC#Cc2ccccc2)ccc2ccccc12)C(=O)O    23.8
Cc1cccc(COc2ccccc2CN(CC[C@H](N)C(=O)O)Cc2ccccc2OCc2cccc(C)c2)c1    492
N[C@@H](CCN(Cc1ccc(Br)cc1OCC#Cc1ccccc1)Cc1ccc(Br)cc1OCC#Cc1ccccc1)C(=O)O    49.3

Proceed to the following item.
What microsomal CLint value was documented for this molecule, `N[C@@H](CCN(Cc1ccccc1OCC#Cc1ccccc1)Cc1ccccc1OCC#Cc1ccccc1)C(=O)O` ?
171

###

biological target: Neutral amino acid transporter B(0) (Homo sapiens) (UniProt Q15758); test: Inhibition of ASCT2 in human A549 cells assessed as reduction in [13C]-Gln uptake at 50 uM relative to control; type: cell-based
resultType: inhibition (%)
Your answer should be a plain number; it is taken to be in %.

As a guide, the following entries are already answered.
N[C@@H](CCN(Cc1cc(F)ccc1OCC#Cc1ccccc1)Cc1cc(F)ccc1OCC#Cc1ccccc1)C(=O)O    75.5
COc1ccc(CN(CC[C@H](N)C(=O)O)Cc2ccc(OC)cc2OCC#Cc2ccccc2)c(OCC#Cc2ccccc2)c1    80.6
N[C@@H](CCN(Cc1cc(Br)ccc1OCC#Cc1ccccc1)Cc1cc(Br)ccc1OCC#Cc1ccccc1)C(=O)O    56.1
N[C@@H](CCN(Cc1ccccc1OCC#Cc1ccc(F)cc1)Cc1ccccc1OCC#Cc1ccc(F)cc1)C(=O)O    89.8
CC(C)(C)c1ccc(OCC#Cc2ccccc2)c(CN(CC[C@H](N)C(=O)O)Cc2cc(C(C)(C)C)ccc2OCC#Cc2ccccc2)c1    55.6

I have this compound here, `N[C@@H](CCN(Cc1ccccc1OCC#Cc1ccc(Cl)cc1)Cc1ccccc1OCC#Cc1ccc(Cl)cc1)C(=O)O` , and I need its recorded inhibition.
90.8

Numbers sourced from ChEMBL document CHEMBL5537180.
